ATX (Homo sapiens): reported pIC50 for various compounds.
pIC50: −log10 of the molar value.

compound: CCc1nc2sc(C3CCN(CC(=O)NC(C)CO)CC3)cn2c1N(CC)c1nc(-c2ccc(F)cc2)c(C#N)s1 (stereo not drawn)
pIC50: 6.30 to 7.00
//
compound: CCc1nc2sc(C3CCN(CC(=O)N4CC(O)C4)CC3)cn2c1N(c1nc(-c2ccc(F)cc2)c(C#N)s1)C1CC1
pIC50: 6.30 to 7.00
//
compound: CCc1nc2sc(C3CCN(CC(=O)N4CC(O)C4)CC3)cn2c1N(CC1CC1)c1nc(-c2ccc(F)cc2)c(C#N)s1
pIC50: 7.00 to 11.00
//
compound: CCc1nc2sc(C3CCN(CC(=O)NCC4(O)CC4)CC3)cn2c1N(CC)c1nc(-c2ccc(F)cc2)c(C#N)s1
pIC50: 6.30 to 7.00
//
compound: CCc1nc2sc(C3CCN(CC(=O)NC4CCOCC4)CC3)cn2c1N(CC)c1nc(-c2ccc(F)cc2)c(C#N)s1
pIC50: 7.00 to 11.00
//
compound: CCc1nc2sc(C3CCN(CC(=O)NCC(F)F)CC3)cn2c1N(CC)c1nc(-c2ccc(F)cc2)c(C#N)s1
pIC50: 7.00 to 11.00
//
compound: CCc1nc2sc(C3CCN(CC(=O)N4CC(O)C4)CC3)cn2c1N(c1nc(-c2ccc(F)cc2)c(C#N)s1)C(C)C
pIC50: 7.00 to 11.00
//
compound: CCc1nc2sc(C3CCN(CC(=O)N(C)CCC#N)CC3)cn2c1N(CC)c1nc(-c2ccc(F)cc2)c(C#N)s1
pIC50: 7.00 to 11.00
//
compound: CCc1nc2sc(C3CCN(CC(=O)NCCO)CC3)cn2c1N(CC)c1nc(-c2ccc(F)cc2)c(C#N)s1
pIC50: 6.30 to 7.00
//
compound: CCc1nc2sc(C3CCN(CC(=O)NCC(C)(C)CO)CC3)cn2c1N(CC)c1nc(-c2ccc(F)cc2)c(C#N)s1
pIC50: 7.00 to 11.00
//
compound: CCc1nc2sc(C3CCN(CC(=O)N4CCOCC4)CC3)cn2c1N(CC)c1nc(-c2ccc(F)cc2)c(C#N)s1
pIC50: 7.00 to 11.00
//
compound: CCc1nc2sc(C3CCN(CC(=O)N4CC(O)C4)CC3)cn2c1N(CC(F)(F)F)c1nc(-c2ccc(F)cc2)c(C#N)s1
pIC50: 7.00 to 11.00

Data provenance: patent US20240002401A1
